// molecules with reported pIC50 on cGMP-dependent 3',5'-cyclic phosphodiesterase (Homo sapiens, UniProt O00408), multi-publication
pIC50: −log10 of the molar value.
assay metric: pIC50

INSERT INTO assay_data (molecule, measured_number) VALUES
  ('Cc1cnc2c(C(=O)NC3(c4ccc(C(F)(F)F)cc4F)CCOCC3=O)cnn2c1 (centres unmarked)', 7.30),
  ('Cc1nn2cc(C3CC3)cnc2c1C(=O)NC1(c2cnc(C(F)(F)F)c(F)c2)CCOCC1', 6.18),
  ('Cc1nn2cc(C3CC3)cnc2c1C(=O)NC1(c2ccc(C(F)(F)F)nc2)CCOCC1', 7.06),
  ('CNC(=O)c1ccc(-c2nccnc2C2CN(c3ccc4ccccc4n3)C2)cc1F', 5.00),
  ('Cc1cnc2c(C(=O)NC3(c4ccc5ccccc5n4)CCOCC3)cnn2c1', 5.78);

a. O=C(N[C@]1(c2ccc(C(F)(F)F)cc2F)CCOC[C@@H]1O)c1cnn2cc(C3CC3)cnc12 (racemic)
b. Cc1nc2ccc(C3CC3)nc2n2c(-c3cc(C4(O)CCCOC4)ccc3Cl)nnc12 (centres unmarked)
Lowest pIC50? choose a or b Your choice should be expressed through its label.
a

A. O=C(NC1(c2ccc(OC(F)(F)F)cc2)CCCOC1)c1cnn2cc(C3CC3)cnc12 (racemic)
B. CNC(=O)c1ccc(-c2nccnc2C2CN(c3ccc4ncc(Cl)cc4n3)C2)cc1F
pIC50 comparison. Which is larger, A or B ? Your choice should be expressed through its label.
A

====

pIC50: −log10 of the molar value.
// molecules with reported pIC50 on cGMP-dependent 3',5'-cyclic phosphodiesterase (Homo sapiens, UniProt O00408), multi-publication
assay metric: pIC50

INSERT INTO assay_data (molecule, measured_number) VALUES
  ('Cc1nn2cc(C3CC3)cnc2c1C(=O)NC1(c2ncc(C(F)(F)F)cc2F)CCOCC1O (racemic)', 7.72),
  ('CNC(=O)c1ccc(-c2nccnc2C2CCN(c3ccc4cc(F)ccc4n3)CC2)cc1F', 5.00),
  ('O=C(NC1(c2ccc(OC(F)F)c(F)c2)CCOCC1)c1cnn2cc(C3CC3)cnc12', 6.34);

P. Cc1nn2cc(C3CC3)cnc2c1C(=O)NC1(c2ccc(C(F)(F)F)cn2)CCOCC1
Q. Cc1nn2cc(C3CC3)cnc2c1C(=O)NC1(c2ccc(C(F)(F)F)cn2)CCOCC1O (racemic)
pIC50 comparison. Which is larger, P or Q ? Your choice should be expressed through its label.
Q

P. CNC(=O)c1ccc(-c2nccnc2C2CCN(c3ccc4ccc(Cl)cc4n3)CC2)cc1F
Q. Cc1cnc2c(C(=O)NC3(c4ccc(Cl)cc4F)CCOCC3)cnn2c1
R. Cc1nc2ccc(C(F)(F)F)nc2n2c(-c3cc(C4(O)CCOC4)ccc3Cl)nnc12 (racemic)
List these items ordered by pIC50, big to small. // respond by listing labels in the order requested
R, Q, P

====

// compounds with reported IC50 on UniProt:O00408, multi-publication
assay metric: IC50 (nM)

INSERT INTO measurements (compound, assay_metric, measured_number) VALUES
  ('O=C(NC1(c2ccc(Cl)c(F)c2)CCOCC1)c1cnn2cc(C3CC3)cnc12', 'IC50', 537),
  ('O=C(NC1(c2ccc(C(F)(F)F)cc2)CCOC1)c1cnn2cc(C3CC3)cnc12 (racemic)', 'IC50', 192),
  ('CNC(=O)c1ccc(-c2nccnc2C2CN(c3ncc4ccc(Cl)cc4n3)C2)cc1F', 'IC50', 7380),
  ('COC(=O)c1ccc(NC(=O)c2nc(NCc3ccc(OC)c(Cl)c3)c3c4c(sc3n2)CN(C)CC4)cc1', 'IC50', 3300),
  ('O=C(NC1(c2ccc(C(F)(F)F)nc2)CCOCC1O)c1cnn2cc(C3CC3)cnc12 (racemic)', 'IC50', 231);

1. Cc1cnc2c(C(=O)NC3(c4ccc(C(F)(F)F)cn4)CCOCC3)c(C)nn2c1
2. Cc1cnc2c(C(=O)NC3(c4ccc(C(F)(F)F)cc4F)CCOC3)cnn2c1 (racemic)
Lowest IC50? choose 1 or 2 Your choice should be expressed through its label.
2
